Biological target: T1, M1′ peptide 8 (human)
T1 peptide: PRAAGGSVPHPRCH
Assay: ELISA on coated antigen, relative OD450/650
Experimental: 15 peptides were generated spanning the sequence surrounding and including human M1′ (Clifford Quan) (FIG. 5A). Peptides were resuspended in either dH20 or 50% DMSO. […] 0.05% Tween-20, 10 ppm Proclin., 0.2% BgG, 0.25% Chaps, 5 mM EDTA, 0.35M NaCl]. […] Plates were then incubated for 2 hours at room temperature. […] Plates were then read at 450/650. […]
value type: binding result

[
  {
    "binder": "humanized anti-IgE/M1′ antibody 47H4.v5 (antibody, V domains shown, huIgG1; also called 47H4v5 huIgG1; 47H5 v.5) VH: EVQLVESGGGLVQPGGSLRLSCAASGFTFSDYGIAWVRQAPGKGLEWVAFISDLAYTIYYADTVTGRFTISRDNSKNTLYLQMNSLRAEDTAVYYCARDNWDAMDYWGQGTLVTVSS VL: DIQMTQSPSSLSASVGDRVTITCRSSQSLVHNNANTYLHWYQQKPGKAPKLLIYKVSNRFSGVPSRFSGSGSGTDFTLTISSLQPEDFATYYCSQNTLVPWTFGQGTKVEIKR",
    "value type": "binding result",
    "result": "no binding"
  },
  {
    "binder": "humanized anti-IgE/M1′ antibody 7A6.v1 (antibody, V domains shown, direct CDR graft, huIgG1; also called 7A6v1 huIgG1; 7A67v1 [sic]) VH: EVQLVESGGGLVQPGGSLRLSCAASGYTFIDYEMHWVRQAPGKGLEWVGAIDPETGTTAYNQKFKGRFTISADTSKNTAYLQMNSLRAEDTAVYYCTRLRPHYDYDNAMDSWGQGTLVTVSS VL: DIQMTQSPSSLSASVGDRVTITCKSSQTLLYSTNQKNYLAWYQQKPGKAPKLLIYWASTRESGVPSRFSGSGSGTDFTLTISSLQPEDFATYYCQQYYSYPYTFGQGTKVEIKR",
    "value type": "binding result",
    "result": "no binding"
  },
  {
    "binder": "humanized anti-IgE/M1′ antibody 26A11.v6 (antibody, V domains shown, huIgG1; also called 26A11v6 huIgG1) VH: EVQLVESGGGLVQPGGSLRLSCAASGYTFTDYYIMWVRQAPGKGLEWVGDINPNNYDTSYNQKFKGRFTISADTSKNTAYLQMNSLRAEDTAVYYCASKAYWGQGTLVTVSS VL: DIQMTQSPSSLSASVGDRVTITCRSSQDISNYLNWYQQKPGKAPKLLIYSTSRLHSGVPSRFSGSGSGTDFTLTISSLQPEDFATYYCQQGHTLPWTFGQGTKVEIKR",
    "value type": "binding result",
    "result": "binds"
  },
  {
    "binder": "murine anti-IgE/M1′ antibody 26A11 (antibody, V domains shown, mIgG1 hybridoma antibody; also called mu26A11; 26A11 mIgG1) VH: EVQLQQSGPELVKPGASVKMSCKASGYTFTDYYMMWVKQSHGKSLEWIGDINPNNYDTSYNQKFKGKATLTVDKSSSTAYIQLNSLTSEDSAVYYCASKAYWGQGTLVTVSA VL: DIQMTQTTSSLSASLGDRVTITCRSSQDISNSLNWYQQKPDGPVKLLIYSTSRLHSGVPSRFSGSGSGTDYSLTISNLEQEDLATYFCQQGHTLPWTFGGGTKVEIKR",
    "value type": "binding result",
    "result": "binds"
  }
]

Every entry's value here was drawn from patent US20120149881A1.
